FYI, the data here is from the supplement of paper PMC11061612.

tested on: KURAMOCHI (Ovarian Carcinoma); test: combination Emax (second highest fraction inhibited in the dose matrix, 72 h); higher = more inhibition; extreme values may be limits of the assay
combination Emax for assorted compounds
Reply briefly: the number, and no unit.

compound | result number
Cn1cnc2c(F)c(Nc3ccc(Br)cc3Cl)c(C(=O)NOCCO)cc21 [Selumetinib] + CC(C)n1c(=O)n(C)c2cnc3cc(F)c(-c4ccc(OCCCN5CCCCC5)nc4)cc3c21 [AZD1390] (first compound max 10 µM, 7x7, partner max 0.3 µM) | 0.194

In: State its combination Emax: Cc1cc2ncnn2cc1Nc1ncc2c(n1)n(C1CCOCC1)c(=O)n2C [AZD7648] + COc1cc([C@@H]2c3cc4c(cc3[C@@H](O[C@@H]3O[C@@H]5CO[C@@H](C)O[C@H]5[C@H](O)[C@H]3O)[C@H]3COC(=O)[C@H]23)OCO4)cc(OC)c1O [Etoposide] (first compound max 10 µM, 7x7, partner max 10 µM)
Out: 0.474
